Hey, just so you know, these numbers are from paper PMC6364417.

Readings of Cell viability in kinase inhibitor library screening, A375 Parental, 10μΜ for the listed compounds
Tested on: A375 cells (parental)
assay explanation: Kinase inhibitor library screening, PrestoBlue cell viability, 1 or 10 μM, 72 h
test context: A375 Parental, 10μΜ, 72 h
// no unit, no text: just the number

Some entries whose results are on file:
1) COc1cccc2cc(-c3nc([C@H]4CC[C@H](C(=O)O)CC4)n4ncnc(N)c34)[nH]c12 [OSI-027]: 24.3
2) Nc1cc(C(F)(F)F)c(-c2cc(N3CCOCC3)nc(N3CCOCC3)n2)cn1 [BKM120 (Buparlisib)]: 9.8
3) Cc1ccc(NC(=O)c2cccc(C(C)(C)C#N)c2)cc1Nc1ccc2ncn(C)c(=O)c2c1 [AZ628]: 23.0

Reported Cell viability in kinase inhibitor library screening, A375 Parental, 10μΜ (A375 cells (parental)) for entry COc1ccc(COc2cc3oc(=O)c4cc(C(C)O)ccc4c3cc2OC)cc1 (centres unmarked) [Palomid 529] is 83.6

Reported Cell viability in kinase inhibitor library screening, A375 Parental, 10μΜ (A375 cells (parental)) for entry Cn1cc(C2=C(c3cn(C4CCN(Cc5ccccn5)CC4)c4ccccc34)C(=O)NC2=O)c2ccccc21 [Enzastaurin (LY317615)] is 55.3

----------
System: A375 cells (parental)
assay explanation: Kinase inhibitor library screening, PrestoBlue cell viability, 1 or 10 μM, 72 h
test context: A375 Parental, 10μΜ, 72 h
endpoint name: Cell viability in kinase inhibitor library screening, A375 Parental, 10μΜ
// no unit, no text: just the number

Some entries whose results are on file:
1) COc1ccc2c(c1OC)N=C(NC(=O)c1cccnc1)N1CCN=C21: 58.0
2) CO[C@H]1C[C@@H]2CC[C@@H](C)[C@@](O)(O2)C(=O)C(=O)N2CCCC[C@H]2C(=O)O[C@H]([C@H](C)C[C@@H]2CC[C@@H](OP(C)(C)=O)[C@H](OC)C2)CC(=O)[C@H](C)/C=C(\C)[C@@H](O)[C@@H](OC)C(=O)[C@H](C)C[C@H](C)/C=C/C=C/C=C/1C [Deforolimus (Ridaforolimus)]: 73.5
3) FC(F)c1nc2ccccc2n1-c1nc(N2CCOCC2)nc(N2CCOCC2)n1: 16.3
4) Nc1ccc(C(=O)Nc2cccc(-c3nc(N4CCOCC4)c4oc5ncccc5c4n3)c2)cn1: 56.6
5) C[C@@H](Oc1cc(-n2cnc3ccc(CN4CCN(C)CC4)cc32)sc1C(N)=O)c1ccccc1C(F)(F)F: 29.0
6) CC(C)(C)Cn1c(N)nc2ccc(-c3[nH]c(C(C)(C)C)nc3-c3ccc(F)cc3)nc21: 91.0
7) NC(=O)c1ccc(N(C(N)=O)c2c(F)cccc2F)nc1-c1ccc(F)cc1F: 90.0
8) CCCS(=O)(=O)Nc1ccc(F)c(C(=O)c2c[nH]c3ncc(-c4ccc(Cl)cc4)cc23)c1F: 14.6

Looking up OCCn1cc(-c2ccc3c(c2)CC/C3=N\O)c(-c2ccncc2)n1 , I see its Cell viability in kinase inhibitor library screening, A375 Parental, 10μΜ listed as 28.9

Looking up Cn1c(=O)n(-c2ccc(C(C)(C)C#N)cc2)c2c3cc(-c4cnc5ccccc5c4)ccc3ncc21 , I see its Cell viability in kinase inhibitor library screening, A375 Parental, 10μΜ listed as 10.9

Looking up Cc1ccc(-n2nc(C(C)(C)C)cc2NC(=O)Nc2ccc(OCCN3CCOCC3)c3ccccc23)cc1 , I see its Cell viability in kinase inhibitor library screening, A375 Parental, 10μΜ listed as 86.4

Looking up Cc1ccc(F)c(NC(=O)Nc2ccc(-c3cccc4[nH]nc(N)c34)cc2)c1 , I see its Cell viability in kinase inhibitor library screening, A375 Parental, 10μΜ listed as 46.3

Looking up O=C(Nc1cccc(Nc2ncc(Br)c(NCCc3cnc[nH]3)n2)c1)N1CCCC1 , I see its Cell viability in kinase inhibitor library screening, A375 Parental, 10μΜ listed as 34.9

Looking up CC(C)(C)c1nc(-c2cccc(NS(=O)(=O)c3c(F)cccc3F)c2F)c(-c2ccnc(N)n2)s1 , I see its Cell viability in kinase inhibitor library screening, A375 Parental, 10μΜ listed as 26.9

Looking up COCCOc1ccc2c(c1)ncn2-c1ccc2cccc(N3CCC(N)CC3)c2n1 , I see its Cell viability in kinase inhibitor library screening, A375 Parental, 10μΜ listed as 71.9

----------
Readings of Cell viability in kinase inhibitor library screening, 501Mel XP, 10μΜ for the listed compounds
System: 501Mel-XP cells (Vemurafenib-resistant)
assay explanation: Kinase inhibitor library screening, PrestoBlue cell viability, 1 or 10 μM, 72 h
test context: 501Mel XP; 10μΜ; 72 h; in %

Some entries whose results are on file:
1) Oc1ccc(-c2nc(-c3ccncc3)c(-c3ccc(F)cc3)[nH]2)cc1 [SB 202190]: 74.6
2) CC[C@@H]1C(=O)N(C)c2cnc(Nc3ccc(C(=O)N[C@H]4CC[C@H](N5CCN(CC6CC6)CC5)CC4)cc3OC)nc2N1C(C)C [BI6727 (Volasertib)]: 0.4
3) Nc1ccc(-c2ccc3ncc4ccc(=O)n(-c5cccc(C(F)(F)F)c5)c4c3c2)cn1 [Torin 2]: 0.164

Looking up O=c1cc(N2CCOCC2)oc2c(-c3ccccc3)cccc12 [LY294002] , I see its Cell viability in kinase inhibitor library screening, 501Mel XP, 10μΜ listed as 68.2

Looking up O=C1NC(=O)/C(=C/c2ccc3c(c2)OC(F)(F)O3)S1 [AS-604850] , I see its Cell viability in kinase inhibitor library screening, 501Mel XP, 10μΜ listed as 90.1

Looking up CCC(=O)N1CCN(c2ccc(-n3c(=O)ccc4cnc5ccc(-c6cnc7ccccc7c6)cc5c43)cc2C(F)(F)F)CC1 [Torin 1] , I see its Cell viability in kinase inhibitor library screening, 501Mel XP, 10μΜ listed as 2.6

Looking up COC(=O)Nc1ccc(-c2nc(N3CCOCC3)c3cnn(C4CCN(C(=O)OC)CC4)c3n2)cc1 [WYE-354] , I see its Cell viability in kinase inhibitor library screening, 501Mel XP, 10μΜ listed as 8.7

Looking up CCn1c(=O)c(-c2cc[nH]n2)cc2c(C)nc(N)nc21 [XL765] , I see its Cell viability in kinase inhibitor library screening, 501Mel XP, 10μΜ listed as 77.0

----------
Test system: 501Mel cells (parental)
assay explanation: Kinase inhibitor library screening, PrestoBlue cell viability, 1 or 10 μM, 72 h
test context: 501Mel Parental; 1μΜ; 72 h; in %
Readings of cell viability, 501Mel Parental, 1μΜ for the listed molecules

Some entries whose results are on file:
1) CCc1cc(Nc2nccc(-c3c(-c4ccc(OC)c(C(=O)Nc5c(F)cccc5F)c4)nc4ccccn34)n2)c(OC)cc1N1CCC(N2CCN(S(C)(=O)=O)CC2)CC1 [GSK1904529A]: 99.4
2) O=C(NOCC(O)CO)c1cc(Br)c(F)c(F)c1Nc1ccc(I)cc1F (stereo not shown) [PD318088]: 54.5
3) CC(=O)Nc1cccc(-n2c(=O)n(C3CC3)c(=O)c3c(Nc4ccc(I)cc4F)n(C)c(=O)c(C)c32)c1 [GSK1120212 (Trametinib)]: 55.4
4) N#C/C(=C\c1ccc(O)c(O)c1)C(=O)NCc1ccccc1 [AG-490]: 99.1
5) CCOc1cc2ncc(C#N)c(Nc3ccc(F)c(Cl)c3)c2cc1NC(=O)/C=C/CN(C)C [Pelitinib (EKB-569)]: 102.9
6) CNC(=O)c1c(F)cccc1Nc1nc(Nc2cc3c(cc2OC)CCN3C(=O)CN(C)C)nc2[nH]ccc12 [GSK1838705A, reference compound]: 73.7

Next item in the queue.
Looking up C=CC(=O)Nc1cccc(Sc2nc(Nc3ccc(N4CCN(C)CC4)cc3)ncc2Cl)c1 [WZ8040] , I see its cell viability, 501Mel Parental, 1μΜ listed as 98.5

----------
System: A375 cells (parental)
assay explanation: Kinase inhibitor library screening, PrestoBlue cell viability, 1 or 10 μM, 72 h
test context: A375 Parental, 10μΜ, 72 h
Please use yes for Cell viability in kinase inhibitor library screening, A375 Parental, 10μΜ under 40 and no for everything else, ties included.

1) COc1ncc(-c2ccc3nccc(-c4ccnnc4)c3c2)cc1NS(=O)(=O)c1ccc(F)cc1F [GSK2126458]: yes
2) COc1cc(OC)c(/C=C/S(=O)(=O)Cc2ccc(OC)c(NCC(=O)O)c2)c(OC)c1 [Rigosertib (ON-01910)]: yes
3) COc1ccc(-c2ccc3ncc4c(c3c2)n(-c2ccc(N3CCNCC3)c(C(F)(F)F)c2)c(=O)n4C)cn1 [NVP-BGT226]: yes
4) Nc1nc(N)c2nc(-c3cccc(O)c3)cnc2n1 [TG 100713]: no
5) Cn1cnc(N)c2ncnc1-2 [3-Methyladenine]: no
6) O=C1NC(=O)/C(=C\c2ccc3nccnc3c2)S1 [AS-605240]: no
7) O=c1cc(N2CCOCC2)oc2c(-c3ccccc3)cccc12 [LY294002]: no
8) O=C1NC(=O)/C(=C/c2ccc3nccc(-c4ccncc4)c3c2)S1 [GSK1059615]: yes

Q) Check if Cell viability in kinase inhibitor library screening, A375 Parental, 10μΜ falls below 40 for Nc1ccc(-c2ccc3ncc4ccc(=O)n(-c5cccc(C(F)(F)F)c5)c4c3c2)cn1 [Torin 2] .
A) yes
